- target.of.assay: T1, recombinant human Nectin-4 (Acro Biosystems) (human, UniProt Q96NY8 32-349)
- T1 construct: Bought recombinant antigen used as analyte in SPR; also called PVRL4
- T1 sequence (looked up): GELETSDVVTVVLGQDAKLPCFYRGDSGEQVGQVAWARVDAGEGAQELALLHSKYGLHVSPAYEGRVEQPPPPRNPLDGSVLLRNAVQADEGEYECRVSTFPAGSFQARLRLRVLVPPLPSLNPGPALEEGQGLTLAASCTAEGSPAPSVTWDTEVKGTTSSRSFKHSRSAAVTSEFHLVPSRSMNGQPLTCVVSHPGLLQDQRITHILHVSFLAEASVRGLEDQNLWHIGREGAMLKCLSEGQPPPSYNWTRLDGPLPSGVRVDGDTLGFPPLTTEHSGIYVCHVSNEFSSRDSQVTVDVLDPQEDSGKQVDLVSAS
- protocol.summary: SPR, Biacore T200 single cycle kinetics at 25 C, IgG from culture supernatant, Nectin-4 as analyte
Attribute: Kd
Write the number in nM without appending the unit.

Past entries and their recorded results:
NTX1105 humanized variant VH4/Vκ5 (antibody, V domains shown, also called NTX1105 (H4/k5); H4K5) VH: QVQLVQSGSELKKPGASVKVSCKASGYTFTSYYIHWVRQAPGQGLEWIGWIYPGNVNTKYNERFKGRVTITADKSTNTAYMELSSLRSEDTAVYYCARSNPYVMDYWGQGTSVTVSS VL: DIQMTQSPSTLSASVGDRVTITCRASQSVNNDVAWYQQKPGKAPKLLMYYASNRFTGVPDRFSGSGYGTDFTLTISSLQAEDVAVYFCQQAYRSPYTFGQGTKLEIK = 12.2
NTX1105 (VH0/Vκ0) parental chimeric anti-Nectin-4 antibody, clone-11 (VH0/Vκ0)-hIgG1 (antibody, V domains shown, Tested from supernatants of transfected cell cultures; also called chimeric antibody; parental mAb) VH: QVQLQQSGPELVKPETSVKISCKASGYTFTSYYIHWVKQRPGQGLEWIGWIYPGNVNTKYNERFKGKATLTADKSSNTAHMQLTSLTSEDSAVYFCARSNPYVMDYWGQGTSVTVSS VL: SIVMTQTPKFLLVSAGDRVTITCKASQSVNNDVAWYQQKPGLSPELLMYYASNRFTGVPDRFTGSGYGTDFTFTISSVQAEDLAIYFCQQAYRSPYTFGGGTKLEIQR = 10.9
NTX1105 humanized variant VH5/Vκ4 (antibody, V domains shown, Humanized IgG) VH: QVQLVQSGSELKKPGASVKVSCKASGYTFTSYYIHWVRQAPGQGLEWMGWIYPGNVNTKYNERFQGRVTITADKSTSTAYMELSSLRSEDTAVYYCARSNPYVMDYWGQGTSVTVSS VL: DIQMTQSPSTLSASVGDRVTITCRASQSVNNDVAWYQQKPGKAPKLLMYYASNRFTGVPDRFSGSGYGTDFTLTISSLQAEDLAIYFCQQAYRSPYTFGQGTKLEIK = 17.7
NTX1105 humanized variant VH4/Vκ1 (antibody, V domains shown, Humanized IgG) VH: QVQLVQSGSELKKPGASVKVSCKASGYTFTSYYIHWVRQAPGQGLEWIGWIYPGNVNTKYNERFKGRVTITADKSTNTAYMELSSLRSEDTAVYYCARSNPYVMDYWGQGTSVTVSS VL: SIVMTQSPSFLLASAGDRVTITCKASQSVNNDVAWYQQKPGLAPELLMYYASNRFTGVPDRFTGSGYGTDFTLTISSLQAEDLAIYFCQQAYRSPYTFGQGTKLEIK = 15.4
NTX1105 humanized variant VH4/Vκ4 (antibody, V domains shown, Humanized IgG) VH: QVQLVQSGSELKKPGASVKVSCKASGYTFTSYYIHWVRQAPGQGLEWIGWIYPGNVNTKYNERFKGRVTITADKSTNTAYMELSSLRSEDTAVYYCARSNPYVMDYWGQGTSVTVSS VL: DIQMTQSPSTLSASVGDRVTITCRASQSVNNDVAWYQQKPGKAPKLLMYYASNRFTGVPDRFSGSGYGTDFTLTISSLQAEDLAIYFCQQAYRSPYTFGQGTKLEIK = 18
NTX1105 humanized variant VH5/Vκ5 (antibody, V domains shown, Humanized IgG; also called H5K5) VH: QVQLVQSGSELKKPGASVKVSCKASGYTFTSYYIHWVRQAPGQGLEWMGWIYPGNVNTKYNERFQGRVTITADKSTSTAYMELSSLRSEDTAVYYCARSNPYVMDYWGQGTSVTVSS VL: DIQMTQSPSTLSASVGDRVTITCRASQSVNNDVAWYQQKPGKAPKLLMYYASNRFTGVPDRFSGSGYGTDFTLTISSLQAEDVAVYFCQQAYRSPYTFGQGTKLEIK = 11.5

For the next question, use this binder.
Kd reported for this binder NTX1105 humanized variant VH4/Vκ3 (antibody, V domains shown, Humanized IgG) VH: QVQLVQSGSELKKPGASVKVSCKASGYTFTSYYIHWVRQAPGQGLEWIGWIYPGNVNTKYNERFKGRVTITADKSTNTAYMELSSLRSEDTAVYYCARSNPYVMDYWGQGTSVTVSS VL: DIQMTQSPSTLSASVGDRVTITCKASQSVNNDVAWYQQKPGKAPKLLMYYASNRFTGVPDRFSGSGYGTDFTLTISSLQAEDLAIYFCQQAYRSPYTFGQGTKLEIK : 15.5

// data source = patent US20260014269A1
